Could you please report measured inhibition at 10 µM for the items listed next?
Biological target: Aurora2 kinase (Homo sapiens)
Construct: A complete recombinant Aurora2 enzyme; His tag (N); made in house; host or cells: E. coli
Sequence (O14965 1-403): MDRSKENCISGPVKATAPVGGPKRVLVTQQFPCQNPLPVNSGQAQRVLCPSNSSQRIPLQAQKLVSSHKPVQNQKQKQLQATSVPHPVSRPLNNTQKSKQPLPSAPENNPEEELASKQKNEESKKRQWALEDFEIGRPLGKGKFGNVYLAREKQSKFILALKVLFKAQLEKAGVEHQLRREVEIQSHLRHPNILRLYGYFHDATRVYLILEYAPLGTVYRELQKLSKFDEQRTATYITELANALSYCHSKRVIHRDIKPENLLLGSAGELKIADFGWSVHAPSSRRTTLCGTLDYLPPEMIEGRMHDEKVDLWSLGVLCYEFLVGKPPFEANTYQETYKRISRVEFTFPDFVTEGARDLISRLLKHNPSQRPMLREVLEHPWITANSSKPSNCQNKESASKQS
Assay: Aurora2 kinase radioactivity scintillation assay using nickel chelate (NuMA substrate)
Type: biochemical
Details: 10 μM; read-out: Aurora2 % inhib at 10 μM
Give bare numbers, in %.

Count: 3. Required value per item: inhibition at 10 µM.
1. CN(C)c1cccc2c(S(=O)(=O)Nc3ccc4[nH]nc(-c5ccccc5)c4c3)cccc12
2. CS(=O)(=O)c1ccccc1S(=O)(=O)Nc1ccc2[nH]nc(-c3ccco3)c2c1
3. CS(=O)(=O)c1ccccc1S(=O)(=O)Nc1ccc2[nH]nc(-c3cc4ccccc4[nH]3)c2c1

[43, 91, 100]

* * *

Could you please report measured inhibition at 10 µM for the items listed next?
Biological target: human KDR enzyme (Homo sapiens)
Construct: The cytoplasmic domain of the human KDR enzyme; GST; made in house; host or cells: SF21 insect cells (baculovirus)
Test: KDR substrate (PLCγ) phosphorylation, scintillation assay
Assay type: biochemical
Conditions: 10 μM; read-out: KDR % inhib at 10 μM
One number for each entry, in %.

>>> obs_value("N#Cc1cccc(S(=O)(=O)Nc2ccc3[nH]nc(-c4ccccc4)c3c2)c1")
96
>>> obs_value("O=S(=O)(Nc1ccc2[nH]ncc2c1)c1ccccc1 [Example 24, N-(1H-Indazol-5-yl)benzenesulfonamide]")
10
>>> obs_value("CS(=O)(=O)c1ccccc1S(=O)(=O)Nc1ccc2[nH]nc(-c3ccsc3)c2c1")
55
>>> obs_value("O=S(=O)(Nc1cccc(F)c1)c1ccc2[nH]ncc2c1")
7
>>> obs_value("O=S(=O)(Nc1ccc2[nH]nc(-c3ccccc3)c2c1)c1cccc2cccnc12")
83
>>> obs_value("CS(=O)(=O)c1ccccc1S(=O)(=O)Nc1ccc2[nH]nc(-c3ccc(F)c(F)c3)c2c1")
47
>>> obs_value("O=S(=O)(Nc1ccc2[nH]nc(-c3ccccc3)c2c1)c1ccc(F)c(F)c1")
93
>>> obs_value("CC(C)c1cccc(-c2n[nH]c3ccc(NS(=O)(=O)c4ccccc4S(C)(=O)=O)cc23)c1")
39

Count: 3. Required value per item: inhibition at 10 µM.
1. CS(=O)(=O)c1ccccc1S(=O)(=O)Nc1ccc2[nH]nc(-c3cc(C(F)(F)F)cc(C(F)(F)F)c3)c2c1
2. CCCCN(CCCC)c1cccc2c(S(=O)(=O)Nc3ccc4[nH]nc(-c5ccccc5)c4c3)cccc12
3. O=S(=O)(Nc1ccc2[nH]nc(-c3ccccc3)c2c1)c1ccc(OC(F)(F)F)cc1

39
96
51

* * *

Could you please report measured inhibition at 10 µM for the items listed next?
Target: human KDR enzyme (Homo sapiens, UniProt P35968)
Construct: The cytoplasmic domain of the human KDR enzyme; GST; made in house; host or cells: SF21 insect cells (baculovirus)
Sequence (P35968 786-1356 limits assumed): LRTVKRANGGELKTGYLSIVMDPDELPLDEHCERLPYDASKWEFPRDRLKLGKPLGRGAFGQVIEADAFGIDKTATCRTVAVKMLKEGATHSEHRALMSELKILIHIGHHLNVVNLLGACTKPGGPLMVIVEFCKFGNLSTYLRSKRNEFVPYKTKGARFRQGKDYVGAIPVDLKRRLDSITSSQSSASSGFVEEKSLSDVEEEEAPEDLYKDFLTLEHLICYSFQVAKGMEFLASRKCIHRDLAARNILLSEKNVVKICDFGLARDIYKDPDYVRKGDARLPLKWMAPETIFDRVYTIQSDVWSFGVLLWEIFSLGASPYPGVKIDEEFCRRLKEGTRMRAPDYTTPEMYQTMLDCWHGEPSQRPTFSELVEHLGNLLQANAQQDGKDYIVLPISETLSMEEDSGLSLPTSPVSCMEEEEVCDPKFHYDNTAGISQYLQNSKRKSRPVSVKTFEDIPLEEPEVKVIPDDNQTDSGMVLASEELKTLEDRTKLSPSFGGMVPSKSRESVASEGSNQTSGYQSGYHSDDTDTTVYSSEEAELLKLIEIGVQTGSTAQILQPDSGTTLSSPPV
Assay: KDR substrate (PLCγ) phosphorylation, scintillation assay
Format: biochemical
Conditions: 10 μM; read-out: KDR % inhib at 10 μM
Answers are plain numbers, in %.

// known answers, use as guide
>>> obs_value("CS(=O)(=O)c1ccccc1S(=O)(=O)Nc1ccc2[nH]nc(Sc3ccccc3)c2c1")
25
>>> obs_value("CS(=O)(=O)c1ccccc1S(=O)(=O)Nc1ccc2[nH]nc(/C=C/c3ccc(F)cc3)c2c1")
95
>>> obs_value("CS(=O)(=O)c1ccccc1S(=O)(=O)Nc1ccc2[nH]nc(-c3ccc(F)cc3)c2c1")
68
>>> obs_value("O=S(=O)(Nc1ccc2[nH]nc(-c3ccccc3)c2c1)c1ccc(Cl)s1")
91
>>> obs_value("CCCCS(=O)(=O)Nc1ccc2[nH]nc(-c3ccccc3)c2c1")
58

Count: 7. Required value per item: inhibition at 10 µM.
1. CN(C)c1cccc2c(S(=O)(=O)Nc3ccc4[nH]nc(-c5ccccc5)c4c3)cccc12
2. CC(=O)Nc1n[nH]c2ccc(NS(=O)(=O)c3cc(F)cc(F)c3)cc12
3. CC(C)(C)c1ccc(S(=O)(=O)Nc2ccc3[nH]nc(-c4ccccc4)c3c2)cc1
4. CS(=O)(=O)c1ccccc1S(=O)(=O)Nc1ccc2[nH]nc(-c3cccnc3)c2c1
5. CS(=O)(=O)c1ccccc1S(=O)(=O)Nc1ccc2[nH]nc(-c3cccc(C#N)c3)c2c1
6. O=S(=O)(/C=C/c1ccccc1)Nc1ccc2[nH]nc(-c3ccccc3)c2c1
7. CS(=O)(=O)c1ccccc1S(=O)(=O)Nc1ccc2[nH]ncc2c1

51
37
39
40
83
58
0

Count: 5. Required value per item: inhibition at 10 µM.
1. Cc1cc(C)c(S(=O)(=O)Nc2ccc3[nH]nc(-c4ccccc4)c3c2)c(C)c1
2. CC(C)c1cc(C(C)C)c(S(=O)(=O)Nc2ccc3[nH]nc(-c4ccccc4)c3c2)c(C(C)C)c1
3. COc1ccc(Cl)cc1-c1n[nH]c2ccc(NS(=O)(=O)c3ccccc3S(C)(=O)=O)cc12
4. C=Cc1ccc(-c2n[nH]c3ccc(NS(=O)(=O)c4ccccc4S(C)(=O)=O)cc23)cc1
5. O=[N+]([O-])c1cccc(S(=O)(=O)Nc2ccc3[nH]nc(-c4ccccc4)c3c2)c1

1: 78; 2: 90; 3: 39; 4: 58; 5: 96

* * *

Biological target: human KDR enzyme (Homo sapiens, UniProt P35968)
Construct: The cytoplasmic domain of the human KDR enzyme; GST; made in house; host or cells: SF21 insect cells (baculovirus)
Assay: KDR substrate (PLCγ) phosphorylation, scintillation assay
Format: biochemical
Conditions: 10 μM; read-out: KDR % inhib at 10 μM
Parameter: inhibition at 10 µM (%)
Give bare numbers, in %.

>>> obs_value("CS(=O)(=O)c1ccccc1S(=O)(=O)Nc1ccc2[nH]nc(C(=O)NC3CCCCC3)c2c1 [Example 29]")
8

Count: 2. Required value per item: inhibition at 10 µM.
1. CS(=O)(=O)c1ccccc1S(=O)(=O)Nc1ccc2[nH]nc(-c3ccc(O)cc3)c2c1 [Example 202]
2. O=S(=O)(Nc1ccc2[nH]nc(-c3ccccc3)c2c1)c1ccc(F)cc1 [Example 117]

1. 79
2. 93

// inhibition at 10 µM value for CS(=O)(=O)c1ccccc1S(=O)(=O)Nc1ccc2[nH]nc(-c3ccc(Cl)cc3)c2c1 [Example 30] : 85

* * *

Molecular target: human KDR enzyme (Homo sapiens)
Construct: The cytoplasmic domain of the human KDR enzyme; GST; made in house; host or cells: SF21 insect cells (baculovirus)
Test: KDR substrate (PLCγ) phosphorylation, scintillation assay
Assay type: biochemical
Details: 10 μM; read-out: KDR % inhib at 10 μM
Could you please report measured inhibition at 10 µM for the items listed next?
Give bare numbers, in %.

>>> obs_value("CS(=O)(=O)c1ccccc1S(=O)(=O)Nc1ccc2[nH]nc(-c3cccc([N+](=O)[O-])c3)c2c1 [Example 162]")
57
>>> obs_value("CCS(=O)(=O)Nc1ccc2[nH]nc(-c3ccccc3)c2c1 [Example 127]")
63
>>> obs_value("CC(=O)Nc1ccc(S(=O)(=O)Nc2ccc3[nH]nc(-c4ccccc4)c3c2)cc1 [Example 95]")
34
>>> obs_value("Nc1n[nH]c2ccc(NS(=O)(=O)c3c(F)cccc3F)cc12 [Example 40]")
22
>>> obs_value("COC(=O)c1cccc(-c2n[nH]c3ccc(NS(=O)(=O)c4ccccc4S(C)(=O)=O)cc23)c1 [Example 55]")
51
>>> obs_value("CCSc1ccc(-c2n[nH]c3ccc(NS(=O)(=O)c4ccccc4S(C)(=O)=O)cc23)cc1 [Example 213]")
68

Count: 2. Required value per item: inhibition at 10 µM.
1. Nc1ccc(S(=O)(=O)Nc2ccc3[nH]nc(-c4ccccc4)c3c2)cc1 [Example 94]
2. Cc1ccc(-c2n[nH]c3ccc(NS(=O)(=O)c4ccccc4S(C)(=O)=O)cc23)cc1N [Example 204]

88
67

* * *

Molecular target: Aurora2 kinase (Homo sapiens, UniProt O14965)
Construct: A complete recombinant Aurora2 enzyme; His tag (N); made in house; host or cells: E. coli
Sequence (O14965 1-403): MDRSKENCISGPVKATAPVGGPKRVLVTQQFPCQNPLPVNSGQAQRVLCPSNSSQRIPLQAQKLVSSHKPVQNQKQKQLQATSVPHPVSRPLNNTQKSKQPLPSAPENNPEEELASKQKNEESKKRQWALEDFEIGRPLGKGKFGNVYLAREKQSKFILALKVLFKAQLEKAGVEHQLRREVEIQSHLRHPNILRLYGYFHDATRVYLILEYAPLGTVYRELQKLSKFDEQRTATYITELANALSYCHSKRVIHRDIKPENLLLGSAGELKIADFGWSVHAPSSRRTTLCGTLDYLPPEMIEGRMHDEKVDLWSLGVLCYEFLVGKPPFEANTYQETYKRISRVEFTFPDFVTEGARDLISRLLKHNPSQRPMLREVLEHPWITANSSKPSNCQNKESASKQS
Experiment: Aurora2 kinase radioactivity scintillation assay using nickel chelate (NuMA substrate)
Format: biochemical
Settings: 10 μM; read-out: Aurora2 % inhib at 10 μM
# inhibition at 10 µM >= 90% gives criterion met, anything below gives criterion not met

See these solved cases before continuing.
>>> assigned_class("O=S(=O)(Nc1ccc2[nH]nc(-c3ccccc3)c2c1)c1ccc2ccccc2c1 [Example 108]")
"criterion not met"
>>> assigned_class("Cc1ccccc1-c1n[nH]c2ccc(NS(=O)(=O)c3ccccc3S(C)(=O)=O)cc12 [Example 105]")
"criterion not met"
>>> assigned_class("O=S(=O)(Nc1ccc2[nH]nc(-c3cc4ccccc4[nH]3)c2c1)c1ccccc1OC(F)(F)F [Example 84]")
"criterion met"

Evaluate CS(=O)(=O)c1ccccc1S(=O)(=O)Nc1ccc2[nH]nc(CCc3ccccc3)c2c1 [Example 90] : inhibition at 10 µM at minimum 90%?
criterion met

Evaluate CS(=O)(=O)c1ccccc1S(=O)(=O)Nc1ccc2[nH]nc(-c3ccc(Cl)s3)c2c1 [Example 181] : inhibition at 10 µM at minimum 90%?
criterion met

Evaluate CN(C)c1c(F)c(F)c(S(=O)(=O)Nc2ccc3[nH]nc(-c4cc5ccccc5[nH]4)c3c2)c(F)c1F [Example 86] : inhibition at 10 µM at minimum 90%?
criterion not met

Evaluate CC(C)(C)c1ccc(-c2n[nH]c3ccc(NS(=O)(=O)c4ccccc4S(C)(=O)=O)cc23)cc1 [Example 197] : inhibition at 10 µM at minimum 90%?
criterion not met

Evaluate CS(=O)(=O)c1ccccc1S(=O)(=O)Nc1ccc2[nH]nc(-c3ccc(Cl)c(Cl)c3)c2c1 [Example 205] : inhibition at 10 µM at minimum 90%?
criterion not met

Evaluate CS(=O)(=O)c1ccccc1S(=O)(=O)Nc1ccc2[nH]nc(-c3cc(C(F)(F)F)cc(C(F)(F)F)c3)c2c1 [Example 101] : inhibition at 10 µM at minimum 90%?
criterion not met
